TEST_SYSTEM: UniProtKB P20813
Sequence (P20813 whole entry): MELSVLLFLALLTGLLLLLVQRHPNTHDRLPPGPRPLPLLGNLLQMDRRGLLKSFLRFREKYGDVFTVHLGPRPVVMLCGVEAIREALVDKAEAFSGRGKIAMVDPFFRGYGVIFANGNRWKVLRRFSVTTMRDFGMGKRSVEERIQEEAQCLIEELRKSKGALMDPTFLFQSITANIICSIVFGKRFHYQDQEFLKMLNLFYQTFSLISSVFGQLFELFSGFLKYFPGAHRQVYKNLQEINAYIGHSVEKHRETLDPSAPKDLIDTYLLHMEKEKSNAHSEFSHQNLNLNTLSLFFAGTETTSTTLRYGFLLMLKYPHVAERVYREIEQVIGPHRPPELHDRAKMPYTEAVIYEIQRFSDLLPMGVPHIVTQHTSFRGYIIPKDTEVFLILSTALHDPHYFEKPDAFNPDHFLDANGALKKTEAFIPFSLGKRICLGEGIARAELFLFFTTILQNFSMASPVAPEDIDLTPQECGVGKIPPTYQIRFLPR
PARAMETER: IC50

Documented IC50 of `COc1cc(-c2cncc(-c3ccc(N4CCNCC4)cc3)c2C)cc(OC)c1OC` : > 30 µM

====

METHOD_NOTES: Volume of distribution at steady state in CB17 SCID mouse at 2 mg/kg, iv after 0.25 to 24 hrs by LC/MS/MS method
Type: ADME, organism-based
TEST_SETTINGS: in vivo, read-out: Vdss
Reported Vd values are given for each entry in this list.
Lab book: enter the figure in L/kg, no units written.

COc1cc(-c2cncc(-c3ccc(N4CCNCC4)cc3)c2C)cc(OC)c1OC
2.05

Documented Vd of `COc1cc(-c2cncc(-c3ccc(C4CCN(C)CC4)cc3)c2C)cc(OC)c1OC` : 2.44

====

Target sequence: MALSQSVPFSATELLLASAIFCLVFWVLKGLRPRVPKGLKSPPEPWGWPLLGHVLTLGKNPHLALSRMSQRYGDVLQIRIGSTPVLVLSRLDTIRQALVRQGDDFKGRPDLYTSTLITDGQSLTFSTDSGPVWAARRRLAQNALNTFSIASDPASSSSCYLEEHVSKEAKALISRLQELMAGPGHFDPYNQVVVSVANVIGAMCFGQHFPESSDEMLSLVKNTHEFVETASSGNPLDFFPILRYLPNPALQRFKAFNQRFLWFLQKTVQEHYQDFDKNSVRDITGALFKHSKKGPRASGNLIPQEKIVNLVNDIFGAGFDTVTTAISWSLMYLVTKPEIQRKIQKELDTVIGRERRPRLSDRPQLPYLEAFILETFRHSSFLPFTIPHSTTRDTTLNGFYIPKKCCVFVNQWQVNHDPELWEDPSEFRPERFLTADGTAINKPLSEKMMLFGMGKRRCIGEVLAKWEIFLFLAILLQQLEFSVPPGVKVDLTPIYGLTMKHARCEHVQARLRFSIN
PARAMETER: IC50

Documented IC50 of `COc1cc(-c2cncc(-c3ccc(N4CCNCC4)cc3)c2C)cc(OC)c1OC` : > 30 µM

====

TEST_SYSTEM: Misshapen-like kinase 1 (Homo sapiens, UniProt Q8N4C8)
Sequence (Q8N4C8 whole entry): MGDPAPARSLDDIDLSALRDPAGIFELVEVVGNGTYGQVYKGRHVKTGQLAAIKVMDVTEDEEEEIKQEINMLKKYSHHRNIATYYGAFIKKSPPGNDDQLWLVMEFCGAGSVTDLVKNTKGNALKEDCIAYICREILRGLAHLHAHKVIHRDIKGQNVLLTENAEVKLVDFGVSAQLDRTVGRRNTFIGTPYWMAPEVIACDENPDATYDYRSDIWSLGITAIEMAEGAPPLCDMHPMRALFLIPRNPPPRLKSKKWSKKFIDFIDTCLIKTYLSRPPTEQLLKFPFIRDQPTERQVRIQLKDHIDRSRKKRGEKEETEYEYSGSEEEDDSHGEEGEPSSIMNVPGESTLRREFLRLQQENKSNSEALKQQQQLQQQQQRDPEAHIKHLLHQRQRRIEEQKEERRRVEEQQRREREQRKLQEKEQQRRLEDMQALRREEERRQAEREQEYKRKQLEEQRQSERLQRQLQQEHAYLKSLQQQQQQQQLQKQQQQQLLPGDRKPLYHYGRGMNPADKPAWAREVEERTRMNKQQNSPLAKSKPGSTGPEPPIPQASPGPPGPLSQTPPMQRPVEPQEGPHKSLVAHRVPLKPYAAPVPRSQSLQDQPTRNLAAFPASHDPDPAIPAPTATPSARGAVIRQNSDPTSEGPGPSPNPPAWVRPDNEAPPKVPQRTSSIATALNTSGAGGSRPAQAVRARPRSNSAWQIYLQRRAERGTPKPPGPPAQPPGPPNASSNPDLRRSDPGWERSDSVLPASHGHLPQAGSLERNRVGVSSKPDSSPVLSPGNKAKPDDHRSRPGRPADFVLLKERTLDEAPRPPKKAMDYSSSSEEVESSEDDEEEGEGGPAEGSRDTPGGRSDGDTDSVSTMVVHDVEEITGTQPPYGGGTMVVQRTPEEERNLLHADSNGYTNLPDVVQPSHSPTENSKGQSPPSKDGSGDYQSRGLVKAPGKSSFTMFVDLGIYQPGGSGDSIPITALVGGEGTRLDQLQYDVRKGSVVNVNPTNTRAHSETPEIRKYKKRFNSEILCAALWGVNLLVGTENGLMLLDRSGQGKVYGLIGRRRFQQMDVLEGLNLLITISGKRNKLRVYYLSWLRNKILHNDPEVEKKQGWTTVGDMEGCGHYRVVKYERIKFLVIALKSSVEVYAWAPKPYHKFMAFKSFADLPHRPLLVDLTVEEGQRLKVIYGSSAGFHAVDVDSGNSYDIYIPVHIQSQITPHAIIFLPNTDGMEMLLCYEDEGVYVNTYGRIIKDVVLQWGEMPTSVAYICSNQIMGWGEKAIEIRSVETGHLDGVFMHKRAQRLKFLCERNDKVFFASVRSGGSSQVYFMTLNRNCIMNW
PARAMETER: IC50

Record `COc1cc(-c2cncc(-c3ccc(N4CCNCC4)cc3)c2C)cc(OC)c1OC` / Misshapen-like kinase 1 (Homo sapiens, UniProt Q8N4C8), IC50 recorded as 336 to 924 nM

The measured values listed here are drawn from ChEMBL document CHEMBL4622974.
